Reference source for all entries: the supplement of paper PMC6555819

System: PXR homodimer (NR concentration 270 nM)
Test: PBM binding z-score (relative to random genomic background probes); higher = stronger binding; sequences stand for … in GC…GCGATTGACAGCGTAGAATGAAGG
measure: PBM binding z-score

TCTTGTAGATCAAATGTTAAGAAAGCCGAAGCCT; 0.012
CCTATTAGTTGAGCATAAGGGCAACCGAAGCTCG; 0.549
TCTGCTAGGTCAACGATGGGCAGCTAATCTGCTA; -1.21
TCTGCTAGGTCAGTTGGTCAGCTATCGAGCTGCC; -0.818
CCTTACGGGACACTGACAGGTTATAGCATTTGGA; 0.162
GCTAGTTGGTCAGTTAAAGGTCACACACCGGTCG; 1.44
GCTATTAGTCGAAAGGGCAACCGAATGATTCTCG; -0.0421

* * *

Test system: RARa homodimer (NR concentration 270 nM)
Test: PBM binding z-score (relative to random genomic background probes); higher = stronger binding; sequences stand for … in GC…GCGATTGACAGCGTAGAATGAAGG
Catalogue of sequences with associated PBM binding z-score
measure: PBM binding z-score

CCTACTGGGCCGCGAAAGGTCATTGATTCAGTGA; 0.0232
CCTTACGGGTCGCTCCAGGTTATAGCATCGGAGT; -0.313
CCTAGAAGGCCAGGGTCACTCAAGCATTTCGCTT; 1.23
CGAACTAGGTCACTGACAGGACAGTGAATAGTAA; -0.0785
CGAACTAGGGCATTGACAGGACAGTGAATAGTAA; 0.262
ATATGTAGGTTATCGGTTCATTCAGTTTGCGCAT; 1.25
CAAACTAGCTCACAGAGGTCAAAGTCCGTGCGTA; 2.88
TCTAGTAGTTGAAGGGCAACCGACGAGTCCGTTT; 0.58
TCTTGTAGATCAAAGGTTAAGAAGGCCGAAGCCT; -0.0225
CCTGCTAGGTCAATGGTCAGCGAAAGCAGCTCGC; -0.0474
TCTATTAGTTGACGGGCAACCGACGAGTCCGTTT; 0.109
CCTTACGGCTCACGAGGTTATAGCACGACGAGCG; 0.403

* * *

Reported PBM binding z-score by item:
Test system: THRa:RXRa (NR concentration 90 nM, RXRa partner concentration 90 nM)
Assay: PBM binding z-score (relative to random genomic background probes); higher = stronger binding; sequences stand for … in GC…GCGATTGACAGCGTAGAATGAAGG
measure: PBM binding z-score

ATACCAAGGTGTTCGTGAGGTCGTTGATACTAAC; 2.96
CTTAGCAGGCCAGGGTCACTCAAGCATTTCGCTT; 2.93
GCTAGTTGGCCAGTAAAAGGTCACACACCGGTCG; 3.55
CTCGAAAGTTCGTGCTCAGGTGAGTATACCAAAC; 2.86
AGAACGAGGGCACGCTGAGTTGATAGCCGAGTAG; 1.89
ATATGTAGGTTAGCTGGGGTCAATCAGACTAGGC; 5.12
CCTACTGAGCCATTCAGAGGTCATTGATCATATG; 3.21
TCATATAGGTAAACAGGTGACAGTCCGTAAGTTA; 0.614
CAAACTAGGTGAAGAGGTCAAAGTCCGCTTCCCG; 3.86
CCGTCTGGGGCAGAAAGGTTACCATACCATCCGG; 0.782
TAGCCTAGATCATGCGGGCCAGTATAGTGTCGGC; -1.05
TGAATGAGGTTAAAGAGCAGGGAACGTGGCGTCG; 2.39
CAAACTAGGTGACCGGAAGGTCAAAGTCCGCATG; 3.57
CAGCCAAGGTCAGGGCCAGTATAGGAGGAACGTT; 3.36
TCTAGTTGGTCAGAGGTCACACACTCGAAATGCG; 3.99
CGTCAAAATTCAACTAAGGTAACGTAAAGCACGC; 2.94
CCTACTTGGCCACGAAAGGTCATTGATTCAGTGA; 3.44
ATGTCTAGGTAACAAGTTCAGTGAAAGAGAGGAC; 1.56
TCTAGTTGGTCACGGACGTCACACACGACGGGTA; 0.233
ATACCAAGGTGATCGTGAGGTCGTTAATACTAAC; 3.3
ATCTCTAGGTAAGACCCAGTTCAGTGAAGAACGC; 0.738
TAGCCTAGGTCAGATCGCGCCAGTATACGCTATA; 1.61
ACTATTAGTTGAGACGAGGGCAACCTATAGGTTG; 2.63
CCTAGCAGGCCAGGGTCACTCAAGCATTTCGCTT; 2.92
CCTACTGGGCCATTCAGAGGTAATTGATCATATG; 0.3
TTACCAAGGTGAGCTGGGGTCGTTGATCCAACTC; 4.38
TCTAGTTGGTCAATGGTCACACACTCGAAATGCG; 0.262
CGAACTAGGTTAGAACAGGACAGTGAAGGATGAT; 1.92
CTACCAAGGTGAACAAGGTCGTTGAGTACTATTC; 3.28

* * *

Tested on: LXRb:RXRa (NR concentration 270 nM, RXRa partner concentration 90 nM)
Assay: PBM binding z-score (relative to random genomic background probes); higher = stronger binding; sequences stand for … in GC…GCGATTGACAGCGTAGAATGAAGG
Outcome label depends on PBM binding z-score relative to 0.9: at/above gives YES, below gives NO.

ATATGTAGGTTAAGGGTCTTTCAGGTTGGTTCGC; YES
TCACATAGGTAAATGCTAGGTGAAAGTCCGATCT; NO
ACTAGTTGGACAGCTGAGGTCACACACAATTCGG; YES
TCATATAGTTAATACAGGTGAAAGTCGGCATCTA; YES
CGTCCAAGGTCAAGGTCAGAGAAAGAGACTCGAA; YES
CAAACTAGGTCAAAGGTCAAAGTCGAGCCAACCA; YES
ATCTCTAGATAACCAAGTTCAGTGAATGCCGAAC; NO
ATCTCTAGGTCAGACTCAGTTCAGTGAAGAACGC; YES
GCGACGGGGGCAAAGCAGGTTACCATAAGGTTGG; YES
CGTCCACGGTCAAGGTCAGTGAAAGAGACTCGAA; YES
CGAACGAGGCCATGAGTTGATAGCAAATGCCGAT; NO
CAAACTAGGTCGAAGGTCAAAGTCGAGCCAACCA; YES
CCTTACGGGTCACTCCAGGTTATAGTATCGGAGT; YES
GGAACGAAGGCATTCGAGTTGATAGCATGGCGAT; NO
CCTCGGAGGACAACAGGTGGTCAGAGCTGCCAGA; NO
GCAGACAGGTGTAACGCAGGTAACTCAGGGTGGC; NO
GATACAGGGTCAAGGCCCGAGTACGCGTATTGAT; YES
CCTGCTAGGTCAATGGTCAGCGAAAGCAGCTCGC; YES
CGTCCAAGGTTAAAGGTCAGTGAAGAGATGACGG; YES
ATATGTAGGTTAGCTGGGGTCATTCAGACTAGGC; YES
CGAACTAGGTCAGAACAGGTCAGTGAAGGATGAT; YES
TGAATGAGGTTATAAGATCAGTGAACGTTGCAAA; YES
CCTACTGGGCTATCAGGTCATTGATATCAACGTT; YES
TAGCCTAGGTAATGCGGGCCAGTATAGTGTCGGC; NO
ATACGTAGGTTAGCTGGGGTCATTCAGACTAGGC; YES
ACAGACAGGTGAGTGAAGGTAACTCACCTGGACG; NO
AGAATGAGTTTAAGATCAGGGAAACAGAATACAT; NO
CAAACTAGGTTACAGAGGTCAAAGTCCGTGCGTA; YES
CGTCAAAGTTCAAGGTAACGTACCAGAAAGCAGC; YES
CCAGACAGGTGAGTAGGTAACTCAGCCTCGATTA; NO
GATACAGGGTCAGCTAGAGGCCACAGTATGGAAA; YES
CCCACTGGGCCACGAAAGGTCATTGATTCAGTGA; YES
TCTTGGAGATCAACAGGAGGTTAAGAAAGATCGA; YES
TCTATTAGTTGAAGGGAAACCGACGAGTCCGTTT; NO
CGTCCACGGTCAGCAGGTCAGTGAAAGCGACGTG; NO
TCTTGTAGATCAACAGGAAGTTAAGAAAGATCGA; NO

* * *

Test system: RARa homodimer (NR concentration 270 nM)
Assay: PBM binding z-score (relative to random genomic background probes); higher = stronger binding; sequences stand for … in GC…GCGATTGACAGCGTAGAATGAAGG
Examples of sequences with documented PBM binding z-score follow.
measure: PBM binding z-score

ACTCGGAGGAGAAAGGTCAGAGCTACGCCAGTGA; 1.26
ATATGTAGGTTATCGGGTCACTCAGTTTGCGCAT; 1.9
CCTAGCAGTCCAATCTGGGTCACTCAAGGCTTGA; -0.751
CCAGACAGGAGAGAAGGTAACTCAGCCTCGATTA; 0.0212
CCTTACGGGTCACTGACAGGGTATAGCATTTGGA; 0.315
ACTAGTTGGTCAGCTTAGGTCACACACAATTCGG; 1.13
TCATATAGGTAGTACAGGTGAAAGTCGGCATCTA; 1.16
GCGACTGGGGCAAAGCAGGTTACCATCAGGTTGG; -1.19
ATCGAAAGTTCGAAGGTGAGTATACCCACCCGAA; -0.2
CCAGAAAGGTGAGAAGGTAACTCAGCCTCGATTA; 0.133
CAAACTGGGTCAAGAGGTCAAAGTCCGCTTCCCG; 1.96
CCTAGCTGGCCAATCTGGGTCACTCAAGGCTTGA; -1.02
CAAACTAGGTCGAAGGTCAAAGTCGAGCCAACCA; 1.29
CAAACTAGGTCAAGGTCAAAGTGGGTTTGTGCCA; 1.68
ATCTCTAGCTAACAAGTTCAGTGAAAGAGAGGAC; 1.13
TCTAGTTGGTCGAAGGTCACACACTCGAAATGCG; 1.25
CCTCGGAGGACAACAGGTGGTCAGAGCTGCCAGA; -0.066
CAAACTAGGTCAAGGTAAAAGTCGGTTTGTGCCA; 0.604
